Molecular target: human V2 receptor (Homo sapiens)
Sequence (P30518 whole entry): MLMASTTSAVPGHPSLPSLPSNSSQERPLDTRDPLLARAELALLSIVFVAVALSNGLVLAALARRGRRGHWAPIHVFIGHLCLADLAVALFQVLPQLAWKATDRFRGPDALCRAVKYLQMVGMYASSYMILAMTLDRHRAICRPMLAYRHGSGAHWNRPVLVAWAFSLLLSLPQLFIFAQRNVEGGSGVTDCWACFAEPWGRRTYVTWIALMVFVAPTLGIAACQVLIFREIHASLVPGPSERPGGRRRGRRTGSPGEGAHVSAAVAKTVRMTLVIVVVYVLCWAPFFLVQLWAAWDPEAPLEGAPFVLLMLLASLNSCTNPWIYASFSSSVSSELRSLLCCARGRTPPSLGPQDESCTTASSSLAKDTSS
Test: Cellular in vitro assay for determining vasopressin receptor activity (V2, CRE-luciferase)
Conditions: CHO cell line transfected with the human V2 receptor; [Arg8]-vasopressin at EC50 concentration; read-out: IC50 hV2
pIC50: −log10 of the molar value.
Classify as follows. Reported pIC50 greater than or equal to 8: fulfilled. Reported pIC50 below: not fulfilled.

| compound | labelValue |
| --- | --- |
| CN1C(=O)CC[C@@H]1c1nc(Cn2nc(-c3ccc(Cl)cc3)n(C[C@H](O)C(F)(F)F)c2=O)nn1-c1ncccc1Cl (single isomer, unassigned) [Example 105] | not fulfilled |
| CC(=O)NC(C)c1nc(Cn2nc(-c3ccc(Cl)cc3)n(C[C@H](O)C(F)(F)F)c2=O)nn1-c1ncccc1Cl (single isomer, unassigned) [Example 108] | not fulfilled |
| CCNC(=O)OCc1nc(Cn2nc(-c3ccc(Cl)cc3)n(C[C@H](OC(=O)NCC)C(F)(F)F)c2=O)nn1-c1ccccc1C(F)(F)F [Example 50] | not fulfilled |
| CN1C(=O)CCC1c1nc(Cn2nc(-c3ccc(Cl)cc3)n(C[C@H](O)C(F)(F)F)c2=O)nn1-c1ncccc1Cl (mixture of isomers) [Example 103] | not fulfilled |
| CNc1ccncc1-n1nc(Cn2nc(-c3ccc(Cl)cc3)n(C[C@H](O)C(F)(F)F)c2=O)nc1C(C)NC(C)=O (single isomer, unassigned) [Example 126] | not fulfilled |
| CC(NS(C)(=O)=O)c1nc(Cn2nc(-c3ccc(Cl)cc3)n(C[C@H](O)C(F)(F)F)c2=O)nn1-c1ccccc1Cl (mixture of isomers) [Example 67] | fulfilled |
| COCCNC(=O)OCc1nc(Cn2nc(-c3ccc(Cl)cc3)n(C[C@H](O)C(F)(F)F)c2=O)nn1-c1ccccc1C(F)(F)F [Example 51] | not fulfilled |
| O=C(NCC(F)(F)F)OCc1nc(Cn2nc(-c3ccc(Cl)cc3)n(C[C@H](O)C(F)(F)F)c2=O)nn1-c1cccc(F)c1 [Example 45] | fulfilled |
| O=C1NC(c2nc(Cn3nc(-c4ccc(Cl)cc4)n(C[C@H](O)C(F)(F)F)c3=O)nn2-c2ncccc2Cl)CO1 (mixture of isomers) [Example 112] | not fulfilled |
| C[C@H](OC(N)=O)c1nc(Cn2nc(-c3ccc(Cl)cc3)n(C[C@H](O)C(F)(F)F)c2=O)nn1-c1cnccc1Cl [Example 21] | not fulfilled |
| C[C@H](OC(N)=O)c1nc(Cn2nc(-c3ccc(Cl)cc3)n(C[C@H](O)C(F)(F)F)c2=O)nn1-c1ccccc1Cl [Example 33] | fulfilled |
| NC(=O)OCc1nc(Cn2nc(-c3ccc(Cl)cc3)n(C[C@H](O)C(F)(F)F)c2=O)nn1-c1ccccc1Cl [Example 28] | fulfilled |
| CC(C)(C)OCC(NS(C)(=O)=O)c1nc(Cn2nc(-c3ccc(Cl)cc3)n(C[C@H](O)C(F)(F)F)c2=O)nn1-c1ccccc1Cl (single isomer, unassigned) [Example 83] | not fulfilled |
| C[C@H](OC(N)=O)c1nc(Cn2nc(-c3ccc(Cl)cc3)n(C[C@H](O)C(F)(F)F)c2=O)nn1-c1ncccc1OC(F)(F)F [Example 22] | not fulfilled |
| CC(=O)NC(COC(C)(C)C)c1nc(Cn2nc(-c3ccc(Cl)cc3)n(C[C@H](O)C(F)(F)F)c2=O)nn1-c1ccccc1Cl (mixture of isomers) [Example 88] | not fulfilled |
